# Measurement target: Cholinesterase (Equus caballus, UniProt P81908)
# Sequence (P81908 whole entry): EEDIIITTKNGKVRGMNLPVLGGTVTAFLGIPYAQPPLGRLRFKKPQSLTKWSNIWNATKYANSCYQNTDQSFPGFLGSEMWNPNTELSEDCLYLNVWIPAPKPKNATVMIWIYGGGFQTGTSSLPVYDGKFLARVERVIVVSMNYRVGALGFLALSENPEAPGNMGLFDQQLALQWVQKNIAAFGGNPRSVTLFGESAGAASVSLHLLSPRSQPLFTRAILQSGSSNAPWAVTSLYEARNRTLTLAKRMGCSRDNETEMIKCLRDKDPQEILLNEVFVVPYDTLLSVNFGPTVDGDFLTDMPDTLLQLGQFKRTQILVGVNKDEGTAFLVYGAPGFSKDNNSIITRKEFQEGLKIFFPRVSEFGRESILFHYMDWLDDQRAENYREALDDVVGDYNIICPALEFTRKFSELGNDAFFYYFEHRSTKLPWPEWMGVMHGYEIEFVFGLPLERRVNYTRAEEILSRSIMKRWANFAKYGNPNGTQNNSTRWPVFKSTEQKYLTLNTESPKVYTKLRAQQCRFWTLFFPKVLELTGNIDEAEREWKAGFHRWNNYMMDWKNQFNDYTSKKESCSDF
# Assay procedure: Inhibition of equine serum BChE using butyrylthiocholine as substrate by Ellman's method
pIC50: −log10 of the molar value.
# key: entry, value: pIC50

Chemical smiles	Measurement target	Value comparator	pIC50
O=c1c2ccc(OCCN3CCCC3)cc2oc2cc(OCCN3CCCC3)cc(O)c12	Cholinesterase (Equus caballus, UniProt P81908)	=	5.43
CN(C)CCOc1ccc2c(=O)c3c(O)cc(OCCN(C)C)cc3oc2c1	Cholinesterase (Equus caballus, UniProt P81908)	=	4.74
O=c1c2ccc(OCCN3CCOCC3)cc2oc2cc(OCCN3CCOCC3)cc(O)c12	Cholinesterase (Equus caballus, UniProt P81908)	<	3.52
O=c1c2ccc(OCCN3CCCCC3)cc2oc2cc(OCCN3CCCCC3)cc(O)c12	Cholinesterase (Equus caballus, UniProt P81908)	=	5.40

Measured values drawn from ChEMBL document CHEMBL4610047 for this set.
